Selectivity BRD4(2)/BRD4(1): recorded values
target.desc: first bromodomain of BRD4 (Homo sapiens (Human), UniProt O60885)
test.method.notes: Bromoscan binding assay BRD4 (1)
condition.set: ratio BRD4(2) Kd / BRD4(1) Kd
reported.endpoint: Selectivity BRD4(2)/BRD4(1)

{"molecule": "COc1cc(NC(=O)c2cc3c(nc2N2CC[C@H](F)C2)COC3)cc2c(C)cc(=O)[nH]c12 [Example 41]", "reported.endpoint": "Selectivity BRD4(2)/BRD4(1)", "reported.relation": ">", "measured": 109}
{"molecule": "COc1cc(NC(=O)c2cc3c(nc2N2CC[C@@H](F)C2)COC3)cc2c(C)cc(=O)[nH]c12 [Example 40]", "reported.endpoint": "Selectivity BRD4(2)/BRD4(1)", "reported.relation": "=", "measured": 14}
{"molecule": "COc1cc(NC(=O)c2cc3c(nc2N2CCOCC2)CN(C(C)C)C3)cc2c(C)cc(=O)[nH]c12 [Example 35]", "reported.endpoint": "Selectivity BRD4(2)/BRD4(1)", "reported.relation": "=", "measured": 30}
{"molecule": "COc1cc(NC(=O)c2cc3c(nc2N2C4CCC2CC4)COC3)cc2c(C)cc(=O)[nH]c12 [Example 39]", "reported.endpoint": "Selectivity BRD4(2)/BRD4(1)", "reported.relation": "=", "measured": 43}

Data origin, for the record: patent US20250382308A1
